Values compiled from patent US20260070987A1.

target: equine FcRn (large alpha subunit p51) in complex with equine beta-2-microglobulin (equine) (UniProt F6XZ61); experiment: SPR (Biacore), pH 6
Quick rule for you: Kd under 20 nM gets yes (1), anything else gets no (0).

Below are worked cases with known answers.
binder	class
equine IgG7 A426H mutant (antibody, part only; not given: variable domains, not shown: another chain or arm of the molecule) constant: ASTTAPKVFPLASHSAATSGSTVALGCLVSSYFPEPVTVSWNSGALTSGVHTFPSVLQSSGLYSLSSMVTVPASSLKSQTYICNVAHPASSTKVDKKIVIKECGGCPTCPECLSVGPSVFIFPPKPKDVLMISRTPTVTCVVVDVGHDFPDVQFNWYVDGVETHTATTEPKQEQNNSTYRVVSILAIQHKDWLSGKEFKCKVNNQALPAPVQKTISKPTGQPREPQVYVLAPHRDELSKNKVSVTCLVKDFYPTDIDIEWKSNGQPEPETKYSTTPAQLDSDGSYFLYSKLTVETNRWQQGTTFTCHVMHEALHNHYTEKSVSKSPGK	yes (1)
equine IgG7 A426L mutant (antibody, part only; not given: Variable domains, not shown: another chain or arm of the molecule) constant: ASTTAPKVFPLASHSAATSGSTVALGCLVSSYFPEPVTVSWNSGALTSGVHTFPSVLQSSGLYSLSSMVTVPASSLKSQTYICNVAHPASSTKVDKKIVIKECGGCPTCPECLSVGPSVFIFPPKPKDVLMISRTPTVTCVVVDVGHDFPDVQFNWYVDGVETHTATTEPKQEQNNSTYRVVSILAIQHKDWLSGKEFKCKVNNQALPAPVQKTISKPTGQPREPQVYVLAPHRDELSKNKVSVTCLVKDFYPTDIDIEWKSNGQPEPETKYSTTPAQLDSDGSYFLYSKLTVETNRWQQGTTFTCLVMHEALHNHYTEKSVSKSPGK	yes (1)
equine IgG7 Y436V mutant (antibody, part only; not given: Variable domains, not shown: another chain or arm of the molecule) constant: ASTTAPKVFPLASHSAATSGSTVALGCLVSSYFPEPVTVSWNSGALTSGVHTFPSVLQSSGLYSLSSMVTVPASSLKSQTYICNVAHPASSTKVDKKIVIKECGGCPTCPECLSVGPSVFIFPPKPKDVLMISRTPTVTCVVVDVGHDFPDVQFNWYVDGVETHTATTEPKQEQNNSTYRVVSILAIQHKDWLSGKEFKCKVNNQALPAPVQKTISKPTGQPREPQVYVLAPHRDELSKNKVSVTCLVKDFYPTDIDIEWKSNGQPEPETKYSTTPAQLDSDGSYFLYSKLTVETNRWQQGTTFTCAVMHEALHNHVTEKSVSKSPGK	yes (1)
equine IgG7 K311Y mutant (antibody, part only; not given: variable domains, not shown: another chain or arm of the molecule) constant: ASTTAPKVFPLASHSAATSGSTVALGCLVSSYFPEPVTVSWNSGALTSGVHTFPSVLQSSGLYSLSSMVTVPASSLKSQTYICNVAHPASSTKVDKKIVIKECGGCPTCPECLSVGPSVFIFPPKPKDVLMISRTPTVTCVVVDVGHDFPDVQFNWYVDGVETHTATTEPKQEQNNSTYRVVSILAIQHYDWLSGKEFKCKVNNQALPAPVQKTISKPTGQPREPQVYVLAPHRDELSKNKVSVTCLVKDFYPTDIDIEWKSNGQPEPETKYSTTPAQLDSDGSYFLYSKLTVETNRWQQGTTFTCAVMHEALHNHYTEKSVSKSPGK	yes (1)
equine IgG7 A426Y mutant (antibody, part only; not given: variable domains, not shown: another chain or arm of the molecule) constant: ASTTAPKVFPLASHSAATSGSTVALGCLVSSYFPEPVTVSWNSGALTSGVHTFPSVLQSSGLYSLSSMVTVPASSLKSQTYICNVAHPASSTKVDKKIVIKECGGCPTCPECLSVGPSVFIFPPKPKDVLMISRTPTVTCVVVDVGHDFPDVQFNWYVDGVETHTATTEPKQEQNNSTYRVVSILAIQHKDWLSGKEFKCKVNNQALPAPVQKTISKPTGQPREPQVYVLAPHRDELSKNKVSVTCLVKDFYPTDIDIEWKSNGQPEPETKYSTTPAQLDSDGSYFLYSKLTVETNRWQQGTTFTCYVMHEALHNHYTEKSVSKSPGK	no (0)

**Query** Threshold test, Kd < 20 nM: equine IgG7 Y436S mutant (antibody, part only; not given: variable domains, not shown: another chain or arm of the molecule) constant: ASTTAPKVFPLASHSAATSGSTVALGCLVSSYFPEPVTVSWNSGALTSGVHTFPSVLQSSGLYSLSSMVTVPASSLKSQTYICNVAHPASSTKVDKKIVIKECGGCPTCPECLSVGPSVFIFPPKPKDVLMISRTPTVTCVVVDVGHDFPDVQFNWYVDGVETHTATTEPKQEQNNSTYRVVSILAIQHKDWLSGKEFKCKVNNQALPAPVQKTISKPTGQPREPQVYVLAPHRDELSKNKVSVTCLVKDFYPTDIDIEWKSNGQPEPETKYSTTPAQLDSDGSYFLYSKLTVETNRWQQGTTFTCAVMHEALHNHSTEKSVSKSPGK
**Result** no (0)

**Query** Threshold test, Kd < 20 nM: equine IgG7 D312E mutant (antibody, part only; not given: variable domains, not shown: another chain or arm of the molecule) constant: ASTTAPKVFPLASHSAATSGSTVALGCLVSSYFPEPVTVSWNSGALTSGVHTFPSVLQSSGLYSLSSMVTVPASSLKSQTYICNVAHPASSTKVDKKIVIKECGGCPTCPECLSVGPSVFIFPPKPKDVLMISRTPTVTCVVVDVGHDFPDVQFNWYVDGVETHTATTEPKQEQNNSTYRVVSILAIQHKEWLSGKEFKCKVNNQALPAPVQKTISKPTGQPREPQVYVLAPHRDELSKNKVSVTCLVKDFYPTDIDIEWKSNGQPEPETKYSTTPAQLDSDGSYFLYSKLTVETNRWQQGTTFTCAVMHEALHNHYTEKSVSKSPGK
**Result** no (0)

**Query** Threshold test, Kd < 20 nM: equine IgG7 M428W mutant (antibody, part only; not given: variable domains, not shown: another chain or arm of the molecule) constant: ASTTAPKVFPLASHSAATSGSTVALGCLVSSYFPEPVTVSWNSGALTSGVHTFPSVLQSSGLYSLSSMVTVPASSLKSQTYICNVAHPASSTKVDKKIVIKECGGCPTCPECLSVGPSVFIFPPKPKDVLMISRTPTVTCVVVDVGHDFPDVQFNWYVDGVETHTATTEPKQEQNNSTYRVVSILAIQHKDWLSGKEFKCKVNNQALPAPVQKTISKPTGQPREPQVYVLAPHRDELSKNKVSVTCLVKDFYPTDIDIEWKSNGQPEPETKYSTTPAQLDSDGSYFLYSKLTVETNRWQQGTTFTCAVWHEALHNHYTEKSVSKSPGK
**Result** yes (1)
